Entries and their pIC50 values follow.
# tested-on: Signal peptidase I (Escherichia coli K-12)
# Sequence (P00803 whole entry): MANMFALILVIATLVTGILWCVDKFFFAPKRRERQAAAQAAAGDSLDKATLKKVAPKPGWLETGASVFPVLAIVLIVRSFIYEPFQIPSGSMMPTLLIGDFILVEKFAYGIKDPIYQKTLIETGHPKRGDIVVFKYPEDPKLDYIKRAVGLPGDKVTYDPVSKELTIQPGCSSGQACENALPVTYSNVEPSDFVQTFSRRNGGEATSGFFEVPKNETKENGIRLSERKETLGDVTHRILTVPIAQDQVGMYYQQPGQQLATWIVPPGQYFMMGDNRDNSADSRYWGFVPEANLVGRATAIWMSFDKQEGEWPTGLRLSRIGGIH
# assay-remarks: Inhibition of full length Escherichia coli His6-tagged LepB expressed in Escherichia coli C43(DE3) using dabcyl-VEVGGTATAGAFSRPGLE-(EDANS) as substrate preincubated for 10 mins followed by substrate addition measured for 2 hrs by FRET assay
# pIC50 is unitless: minus log10 of the molar concentration; print number only

Use these answered entries as a reference point.
>>> value_measured("CCCCCCc1ccc(-c2ccc(C(=O)N3CC(CN)C[C@H]3C(=O)N[C@H](C(=O)N[C@@H](C)C(=O)N[C@@H](CC(N)=O)C(=O)N[C@@H](C)B3O[C@@H]4C[C@@H]5C[C@@H](C5(C)C)[C@]4(C)O3)[C@H](C)O)cc2)cc1 (stereo not given in full)")
7.74
>>> value_measured("CC(O)[C@H](NC(=O)[C@@H]1CCCN1)C(=O)N[C@@H](C)C(=O)N[C@@H](CC(N)=O)C(=O)N[C@@H](C)B1O[C@@H]2C[C@@H]3C[C@@H](C3(C)C)[C@]2(C)O1 (single isomer, unassigned)")
4.59
>>> value_measured("CCCCCCc1ccc(-c2ccc(C(=O)N3CCC[C@H]3C(=O)N[C@H](C(=O)N[C@@H](C)C(=O)N[C@@H](CC(N)=O)C(=O)N[C@@H](C)B3O[C@@H]4C[C@@H]5C[C@@H](C5(C)C)[C@]4(C)O3)[C@H](C)O)cc2)cc1")
7.92
>>> value_measured("CCCCCCCCCC(=O)N1CCC[C@H]1C(=O)N[C@H](C(=O)N[C@@H](C)C(=O)N[C@@H](CC(N)=O)C(=O)N[C@@H](C)C=O)[C@H](C)O")
5.92

Turning to the following molecule.
Req: Quote Signal peptidase I (Escherichia coli K-12) pIC50 for entry "CCCCCCCCCC(=O)N1CCC[C@H]1C(=O)N[C@H](C(=O)N[C@@H](C)C(=O)N[C@@H](CC(N)=O)C(=O)N[C@@H](C)B1O[C@@H]2C[C@@H]3C[C@@H](C3(C)C)[C@]2(C)O1)[C@H](C)O" .
Resp: 7.32

----------
# tested-on: UniProt:P00803
# assay-remarks: Inhibition of full length Escherichia coli His6-tagged LepB expressed in Escherichia coli C43(DE3) assessed as residual activity at 0.02 uM using dabcyl-VEVGGTATAGAFSRPGLE-(EDANS) as substrate preincubated for 10 mins followed by substrate addition measured for 2 hrs by FRET assay relative to control
Where Activity equals or exceeds 40%, the correct label is Satisfied; where it does not, the label is Not satisfied.

# example entries with known answers
>>> cat("CCCCCCCCCC(=O)N1CCC[C@H]1C(=O)N[C@H](C(=O)N[C@@H](C)C(=O)N[C@@H](CC(N)=O)C(=O)N[C@@H](C)B1O[C@@H]2C[C@@H]3C[C@@H](C3(C)C)[C@]2(C)O1)[C@H](C)O")
"Satisfied"
>>> cat("CCCCCCc1ccc(-c2ccc(C(=O)N3CCC[C@H]3C(=O)N[C@H](C(=O)N[C@@H](C)C(=O)N[C@@H](CC(N)=O)C(=O)N[C@@H](C)B3O[C@@H]4C[C@@H]5C[C@@H](C5(C)C)[C@]4(C)O3)[C@H](C)O)cc2)cc1")
"Satisfied"
>>> cat("CCCCCCc1ccc(-c2ccc(C(=O)N3CC(CN)C[C@H]3C(=O)N[C@H](C(=O)N[C@@H](C)C(=O)N[C@@H](CC(N)=O)C(=O)N[C@@H](C)B(O)O)[C@H](C)O)cc2)cc1 (stereo not given in full)")
"Not satisfied"

Req: Could you verify whether the entry CCCCCCc1ccc(-c2ccc(C(=O)N3CC(CN)C[C@H]3C(=O)N[C@H](C(=O)N[C@@H](C)C(=O)N[C@@H](CC(N)=O)C(=O)N[C@@H](C)B3O[C@@H]4C[C@@H]5C[C@@H](C5(C)C)[C@]4(C)O3)[C@H](C)O)cc2)cc1 (stereo not given in full) shows Activity of no less than 40%?
Resp: Not satisfied

Req: Could you verify whether the entry "CCCCCCc1ccc(-c2ccc(C(=O)N3CCC[C@H]3C(=O)N[C@H](C(=O)N[C@@H](C)C(=O)N[C@@H](CC(N)=O)C(=O)N[C@@H](C)B(O)O)[C@H](C)O)cc2)cc1" shows Activity of no less than 40%?
Resp: Satisfied
